Target: rat MCH-1 (Rattus norvegicus, UniProt P97639)
Sequence (P97639 whole entry): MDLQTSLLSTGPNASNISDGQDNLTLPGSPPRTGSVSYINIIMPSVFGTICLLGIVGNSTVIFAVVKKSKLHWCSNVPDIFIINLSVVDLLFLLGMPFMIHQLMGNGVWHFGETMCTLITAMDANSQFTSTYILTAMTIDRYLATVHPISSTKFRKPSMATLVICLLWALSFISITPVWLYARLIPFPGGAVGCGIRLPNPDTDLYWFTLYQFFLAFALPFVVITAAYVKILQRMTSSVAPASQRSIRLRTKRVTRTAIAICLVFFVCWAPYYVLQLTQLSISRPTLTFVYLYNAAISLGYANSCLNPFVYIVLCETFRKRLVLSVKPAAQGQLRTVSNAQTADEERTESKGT
Assay: Radioligand binding assay at cloned rat MCH1 receptor ([3H] Compound A)
Design: host or cells: Peak rapid 293 (Peakr293) cells, transient calcium phosphate transfection, membranes
Settings: cloned rat MCH1 receptor; 0.08 nM [3H] Compound A; Peakr293 cell membranes; read-out: Ki (nM) rMCH1
readout.kind: Ki (nM)

Some solved entries appear below for comparison.
Value sought: Ki, system rat MCH-1 (Rattus norvegicus, UniProt P97639), item `CSc1ccccc1NC(=O)NCCCN1CCC(c2cccc(NC(=O)C(C)C)c2)CC1` . Result: 178

Value sought: Ki, system rat MCH-1 (Rattus norvegicus, UniProt P97639), item `Cc1ccccc1-c1cccc2c(CN3CCC(c4cccc(NC(=O)C(C)C)c4)CC3)c[nH]c12` . Result: 199

Value sought: Ki, system rat MCH-1 (Rattus norvegicus, UniProt P97639), item `CC(C)C(=O)Nc1cccc(C2CCN(CCCC(=O)c3ccc(F)cc3)CC2)c1` . Result: 15.2

a = CC(C)C(=O)Nc1cccc(C2CCN(CCCCCC(O)c3ccccc3F)CC2)c1 (stereo not drawn)
b = Cc1cccc2c(CCCN3CCC(c4cccc(NC(=O)C(C)C)c4)CC3)c(-c3cccc(Br)c3)[nH]c12
c = Cc1ccc2[nH]c(-c3ccc([N+](=O)[O-])cc3)c(CCCN3CCC(c4cccc(NC(=O)C(C)C)c4)CC3)c2c1
d = CC(C)C(=O)Nc1cccc(C2CCN(CCCCCCN)CC2)c1
Falling order of Ki, please. Please express your ranking as an ordered list of the labels.
d, a, c, b

P = CC(C)C(=O)Nc1cccc(C2CCN(CCCCCC(Oc3ccc(Cl)cc3)c3ccc(F)cc3)CC2)c1 (stereo not drawn)
Q = O=C(CCCCN1CCC(c2cccc(NC(=O)C3CC3)c2)CC1)c1ccccc1C(F)(F)F
R = CC(C)C(=O)Nc1cccc(C2CCN(CCc3cn(-c4ccccc4)c4ccccc34)CC2)c1
S = CC(C)C(=O)Nc1cccc(C2CCN(CCCCCC(Oc3ccc(Cl)cc3)c3ccccc3)CC2)c1 (stereo not drawn)
T = CC(C)C(=O)Nc1cccc(C2CCN(Cc3cn(C)c4ccccc34)CC2)c1
Rank ascending by Ki. Please express your ranking as an ordered list of the labels.
P, S, R, Q, T
(P: 8.2 nM, S: 14.2 nM, R: 21.6 nM, Q: 55.7 nM, T: 556 nM)

A = COc1ccc2[nH]c(-c3ccc(C(F)(F)F)cc3)c(CCCN3CCC(c4cccc(NC(=O)C(C)C)c4)CC3)c2c1
B = COc1cccc(-n2ccc3cc(CN4CCC(c5cccc(NC(=O)C(C)C)c5)CC4)ccc32)c1
C = CC(C)C(=O)Nc1cccc(C2CCN(CCCc3c(-c4cccc(Cl)c4)[nH]c4ccccc34)CC2)c1
Rank ascending by Ki. Please express your ranking as an ordered list of the labels.
C, A, B
